These data points were gathered from patent US20220152051A1.

Test system: RL95-2 (human endometrial cancer cells)
ASSAY_DETAILS: In-vitro anti-tumor experiment (CCK-8), RL95-2 cells
Type: cell-based
CONDITION_SUMMARY: Homo sapiens, CCK-8, 36 h
pIC50: −log10 of the molar value.
EXPERIMENTAL_ENDPOINT: pIC50

Q: Find the measured pIC50: item C[C@H](CCC(=O)NCC(=O)O)[C@H]1CC[C@H]2[C@@H]3[C@H](O)C[C@@H]4C[C@H](O)CC[C@]4(C)[C@H]3C[C@H](O)[C@]12C , target or system RL95-2 (human endometrial cancer cells).
Result: 6.19 to 6.49

* * *

Test system: MCF-7 (human breast cancer cells)
ASSAY_DETAILS: In-vitro anti-tumor experiment (CCK-8), MCF-7 cells
Assay type: cell-based
CONDITION_SUMMARY: Homo sapiens, MCF7, CCK-8, 36 h
pIC50: −log10 of the molar value.
EXPERIMENTAL_ENDPOINT: pIC50

Q: Requested field: pIC50. Item: C[C@H](CCC(=O)NCC(=O)O)[C@H]1CC[C@H]2[C@@H]3[C@H](O)C[C@@H]4C[C@H](O)CC[C@]4(C)[C@H]3C[C@H](O)[C@]12C
Result: 6.00 to 6.19
